# Tested on: HL-60
# ASSAY_OVERVIEW: Antiproliferative activity against human HL-60 cells
# Type: functional, cell-based
QUANTITY_KIND: pIC50
Kindly note that pIC50 refers to -log10 of the concentration in mol/L and answer with the value alone.

Look at this molecule and give its reported pIC50. Cc1cc(-c2cc(NC(=O)CCC(=O)NCCOCCOCCc3ccc4c(c3)C(=O)N(C3CCC(=O)NC3=O)C4=O)ccc2Oc2ccccc2)n2cc[nH]c(=O)c12 (stereo unspecified)
7.34

---

# Test system: MDA-MB-231
# ASSAY_OVERVIEW: Antiproliferative activity against human MDA-MB-231 cells
QUANTITY_KIND: pIC50
Reminder that pIC50 means the negative base-10 logarithm of the concentration expressed in mol/L.

So what's the measured pIC50 for this one? COc1cc(C)[nH]c(=O)c1CNC(=O)c1cccc2c1c(C)cn2[C@H](C)C1CCN(CCCCCCCCCC(=O)N[C@H](C(=O)N2C[C@H](O)C[C@H]2C(=O)NCc2ccc(-c3scnc3C)cc2)C(C)(C)C)CC1
5.35

---

# Test system: LNCaP
# ASSAY_OVERVIEW: Antiproliferative activity against human LNCaP cells
# Assay type: functional, cell-based
QUANTITY_KIND: IC50 (nM)
Write the value in nM as a bare number.

Dear colleague, I am looking for the recorded IC50 of the following compound: COc1ccc(Br)cc1S(=O)(=O)Nc1cc2c(C)noc2cc1OCCOCCOCCOCCOCCOCCOc1cc2onc(C)c2cc1NS(=O)(=O)c1cc(Br)ccc1OC
525

---

# System: LNCaP C4-2B
# ASSAY_OVERVIEW: Antiproliferative activity against human LNCaP C4-2B cells
# Assay type: functional, cell-based
QUANTITY_KIND: IC50 (nM)
Give your result in nM as a bare value.

Report IC50 for COc1ccc(Br)cc1S(=O)(=O)Nc1cc2c(C)noc2cc1OCCOCCOCCOCCOCCOCCOc1cc2onc(C)c2cc1NS(=O)(=O)c1cc(Br)ccc1OC please.
930

---

# Tested on: THP-1
# ASSAY_OVERVIEW: Antiproliferative activity against human THP-1 cells
# Assay type: functional, cell-based
QUANTITY_KIND: pIC50
Remember, pIC50 is on a log scale: it is -log10 of the molar concentration.

What does the data say about its pIC50? Entry: Cc1cc(-c2cc(NC(=O)CCC(=O)NCCOCCOCCc3ccc4c(c3)C(=O)N(C3CCC(=O)NC3=O)C4=O)ccc2Oc2ccccc2)n2cc[nH]c(=O)c12 (stereo unspecified)
7.64

---

# TGT: Bromodomain-containing protein 4 (Homo sapiens, UniProt O60885)
# ASSAY_OVERVIEW: Inhibition of BRD4 (unknown origin)
QUANTITY_KIND: pIC50
As a rule, pIC50 stands for the negative log10 of the concentration, concentration in M.

I am curious: what pIC50 value has been reported for CCS(=O)(=O)Nc1ccc(Oc2ccc(F)cc2F)c(-c2cn(C)c(=O)c3[nH]ccc23)c1 ?
8.59

---

# ASSAY_OVERVIEW: Half life in mouse
# Type: ADME, organism-based
# TEST_CONDITIONS: in vivo
QUANTITY_KIND: half-life (h)
State just the number; it will be interpreted in h.

Endpoint output: half-life of COc1cc(C)[nH]c(=O)c1CNC(=O)c1cccc2c1c(C)cn2[C@H](C)C1CCN(CCCCCCCCCC(=O)N[C@H](C(=O)N2C[C@H](O)C[C@H]2C(=O)NCc2ccc(-c3scnc3C)cc2)C(C)(C)C)CC1 . Value?
1.07
